protocol details: NCI Yeast Anticancer Drug Screen. Data for the rad50 strain (AID 155);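 note: 0% = growth of vehicle-only cultures of the same strain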
experimental conditions: S. cerevisiae rad50 strain growth inhibition; at 50.0 µM; hits give high values
Procedure: Growth inhibition of yeast strains with defined genetic alterations is measured as a screen for potential anti-cancer activity. Selected strains with alterations in DNA damage repair or cell cycle control were exposed to compounds and growth inhibition was measured relative to vehicle treated controls. The strain used in this assay is rad50
Compounds without any hit were thinned out: in the full panel of roughly 79,000, 15% have a hit.
measured endpoint: growth inhibition (%)
Unit % implied. Number only.

A selection of reference data follows.
>>> df
                                   compound  measured_endpoint  reported_measurement
0  Cc1cc(N(CCCl)CCCl)ccc1CN1CCCN(Cc2ccc(N(CCCl)CCCl)cc2C)C1c1ccc(N(CCCl)CCCl)cc1  growth inhibition                  66.2
1  CC(C)C(NC(=O)CCl)C(=O)O (stereo unspecified)  growth inhibition                  -9.2
2  CCN(CC)C(=O)N1CN(c2ccccc2)C2(CCN(CCCC3(c4ccc(F)cc4)OCCO3)CC2)C1=O  growth inhibition                  24.7
3  CN(Cc1cnc2nc(N)nc(N)c2n1)c1ccc(C(=O)NC(CCC(=O)NCC(P(=O)(O)O)P(=O)(O)O)C(=O)O)cc1 (stereo unspecified)  growth inhibition                 -12.6
4  C=C1C(=O)OC2CC3(C)OC3CC/C(C)=C/C(OC(C)=O)C12 (stereo unspecified)  growth inhibition                  27.1

stdin: Which growth inhibition reading was recorded for the compound CN(C)CCBr ?
stdout: 38

----------
protocol details: NCI Yeast Anticancer Drug Screen. Data for the rad50 strain (AID 155);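 note: 0% = growth of vehicle-only cultures of the same strain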
experimental conditions: S. cerevisiae rad50 strain growth inhibition; at 50.0 µM; hits give high values
The panel holds about 79,000 compounds, 15% with a hit somewhere; the sample as a whole holds those more often.
measured endpoint: growth inhibition (%)
Unit % implied. Number only.

A selection of reference data follows.
molecule	growth inhibition (%)
CCCCN1CCC2(CC1)C(=O)NC(=S)NC2=O	-12.4
ClCCOCOCCCl	-0.5

stdin: Which growth inhibition reading was recorded for the molecule C[N+](C)(C)CC1CCCCC1=O (stereo not drawn) ?
stdout: 24.1

stdin: Request: NC(N)=NCCN=C(N)N
stdout: -2.7

stdin: Request: OC(Br)C1C(c2ccccc2)N1C1CCCCC1 (stereo not drawn)
stdout: -2

stdin: Request: Cc1csc(N/C(=N/[N+](=O)[O-])N(C)C)n1
stdout: -35.5

stdin: Request: COC(=O)[CH2][Sn]([CH2]C(=O)OC)([CH]1CCCCC1)[CH]1CCCCC1
stdout: 98.4

stdin: Request: C[C@H]1CC[C@@]2(NC1)O[C@H]1C[C@H]3[C@@H]4CC[C@H]5C[C@@H](O)CC[C@]5(C)[C@H]4CC[C@]3(C)[C@H]1[C@@H]2C
stdout: 92.2

stdin: Request: CC12CC(=O)C3C(CCC4CC=CCC43C)C1CCC2=O (stereo not drawn)
stdout: 22.1

stdin: Request: CC1(C)CC(N)C(=O)c2ccccc21 (stereo not drawn)
stdout: 7.25

----------
protocol details: NCI Yeast Anticancer Drug Screen. Data for the mlh1 rad18 strain (AID 175)
experimental conditions: S. cerevisiae mlh1 rad18 strain growth inhibition; at 5.0 µM (retest, dose inferred, filed as 0.5); hits give high values
Compounds without any hit were thinned out: in the full panel of roughly 79,000, 15% have a hit.
measured endpoint: growth inhibition (%)
Unit % implied. Number only.

A selection of reference data follows.
>>> print(df.to_string())
                                   compound  unit_text  reported_measurement
0   Nc1c([N+](=O)[O-])cc(Cl)cc1[N+](=O)[O-]          %                     2
1  CC12OOC(c3ccccc31)c1c2ccc2ccccc12 (stereo not given)          %                    90
2               O=S(=O)(F)c1cc(Cl)c(O)cc1Cl          %                  -114
3  CC(=O)OCC12CC(O)C(C)=CC1OC1C(O)C(OC(C)=O)C2(C)C12CO2 (stereo not given)          %                     8

stdin: Which growth inhibition reading was recorded for the compound CN(C)c1ccc(N=Nc2cccc(C(=O)[O-])c2)cc1.CN(C)c1ccc(N=Nc2cccc(C(=O)[O-])c2)cc1.NC1CCCCC1N.O=[N+]([O-])O.[Pt+4] ?
stdout: 41
